- Test system: MCF7 (human breast adenocarcinoma)
- Experimental Details: In vitro cytotoxic activity, Calcein AM, three days
- Type: cell-based
- Assay Context: Homo sapiens, MCF7, 72 h
The reader will find reported pIC50 values listed item by item below.
Reminder that pIC50 means the negative base-10 logarithm of the concentration expressed in mol/L.

Entry CC(C)c1n[nH]c2c(NCc3ccco3)ncnc12 , system MCF7 (human breast adenocarcinoma): what pIC50 was measured? 3.89

Entry CC(C)c1n[nH]c2c(Nc3ccc(Br)cc3)ncnc12 , system MCF7 (human breast adenocarcinoma): what pIC50 was measured? 5.30

----------
- Target Or Test System: CDK2 (p33^cdk2, cyclin E) (Homo sapiens, UniProt P24941)
- Experimental Details: CDK inhibition assay, p33^cdk2 kinase, histone H1 phosphorylation
Metric Name: pIC50
Reminder that pIC50 means the negative base-10 logarithm of the concentration expressed in mol/L.

Below: 5 compounds and their reported pIC50.
Compound | pIC50
CCc1n[nH]c2c(Nc3ccc(Cl)c(C(=O)O)c3)ncnc12 [3-carboxy-4-chloroanilino / ethyl] | 4.40
Cc1n[nH]c2c(NC3CCC3)ncnc12 [cyclobutylamino / methyl] | 4.55
COc1ccc(CNc2ncnc3c(C(C)C)n[nH]c23)cc1 [4-methoxybenzylamino / isopropyl] | 6.00
CCc1n[nH]c2c(Nc3cccc(Cl)c3)ncnc12 [3-chloroanilino / ethyl] | 4.74
C=CCNc1ncnc2c(C)n[nH]c12 [allylamino / methyl] | 4.32

Field request: pIC50 | item: CCc1n[nH]c2c(Nc3ccc(Cl)cc3)ncnc12 [4-chloroanilino / ethyl] 4.80

Field request: pIC50 | item: CCc1n[nH]c2c(NCc3cccc(C)c3)ncnc12 [3-methylbenzylamino / ethyl] 4.77

Field request: pIC50 | item: CCc1n[nH]c2c(Nc3ccc(N)c(Cl)c3)ncnc12 [3-chloro-4-aminoanilino / ethyl] 4.55

----------
- Target Or Test System: CDK2 (p33^cdk2, cyclin E) (Homo sapiens, UniProt P24941)
- Experimental Details: CDK inhibition assay, p33^cdk2 kinase, histone H1 phosphorylation
The reader will find reported log10 IC50 values listed item by item below.
Parameter value (number): base-10 log of IC50 in µM.

Below: 3 compounds and their reported log10 IC50.
Compound | Metric Name | Numeric Value
CCc1n[nH]c2c(NC3CCCC3)ncnc12 | log10 IC50 | 1.51
Cc1n[nH]c2c(Nc3ccc(Cl)c(N)c3)ncnc12 | log10 IC50 | 1.45
Cc1ccccc1CNc1ncnc2c(C(C)C)n[nH]c12 | log10 IC50 | 0.15

Field request: log10 IC50 | item: CC(C)c1n[nH]c2c(Nc3ccc(Cl)cc3)ncnc12 0.49

Field request: log10 IC50 | item: CC(C)c1n[nH]c2c(NCc3ccccc3O)ncnc12 [2-hydroxybenzylamino / isopropyl] -0.57

Field request: log10 IC50 | item: CCc1n[nH]c2c(NCc3ccccc3O)ncnc12 [2-hydroxybenzylamino / ethyl] 0.85

Field request: log10 IC50 | item: Cc1n[nH]c2c(NCc3cccc(Cl)c3)ncnc12 0.97

Field request: log10 IC50 | item: CCc1n[nH]c2c(NCc3ccccc3C)ncnc12 1.15

Field request: log10 IC50 | item: CC(C)=CCNc1ncnc2c(C)n[nH]c12 1.64

Field request: log10 IC50 | item: CCc1n[nH]c2c(Nc3ccc(O)c(C(=O)O)c3)ncnc12 [3-carboxy-4-hydroxyanilino / ethyl] 1.34

Field request: log10 IC50 | item: Cc1n[nH]c2c(Nc3ccc(Br)cc3)ncnc12 1.26

----------
The following molecules each carry a recorded IC50 for UniProtKB P06493.
Sequence (P06493 whole entry, species assumed): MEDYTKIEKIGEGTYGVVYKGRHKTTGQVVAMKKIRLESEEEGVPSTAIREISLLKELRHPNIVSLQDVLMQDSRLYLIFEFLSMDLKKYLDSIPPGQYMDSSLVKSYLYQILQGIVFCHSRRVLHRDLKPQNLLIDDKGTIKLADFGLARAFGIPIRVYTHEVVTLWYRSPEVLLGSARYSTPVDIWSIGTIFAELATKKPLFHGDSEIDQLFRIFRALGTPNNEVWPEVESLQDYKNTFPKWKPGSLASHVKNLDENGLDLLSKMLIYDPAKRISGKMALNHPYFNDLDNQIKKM
Sequence (P14635 whole entry partner, species assumed): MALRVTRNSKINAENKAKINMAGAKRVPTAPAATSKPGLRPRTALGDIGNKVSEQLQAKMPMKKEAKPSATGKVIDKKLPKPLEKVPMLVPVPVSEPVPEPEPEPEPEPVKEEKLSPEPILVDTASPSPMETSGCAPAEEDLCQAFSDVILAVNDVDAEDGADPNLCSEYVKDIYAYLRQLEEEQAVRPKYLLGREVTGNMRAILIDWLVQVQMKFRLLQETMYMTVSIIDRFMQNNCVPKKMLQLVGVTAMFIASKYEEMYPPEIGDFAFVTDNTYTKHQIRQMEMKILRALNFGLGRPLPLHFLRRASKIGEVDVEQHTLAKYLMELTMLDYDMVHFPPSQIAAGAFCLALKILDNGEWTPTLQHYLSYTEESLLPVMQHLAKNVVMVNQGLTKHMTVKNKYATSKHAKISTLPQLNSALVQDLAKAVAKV
Reply with the number and its unit after it.

Molecule | IC50
Cc1n[nH]c2c(NCc3cccc(O)c3)ncnc12 [3-hydroxybenzylamino / methyl] | 5.5 µM

Entry Cc1n[nH]c2c(NCc3ccccc3Cl)ncnc12 [2-chlorobenzylamino / methyl] , system UniProtKB P06493: what IC50 was measured? 25 µM

Entry CCc1n[nH]c2c(NC3CCC3)ncnc12 [cyclobutylamino / ethyl] , system UniProtKB P06493: what IC50 was measured? 27 µM

Entry Cc1n[nH]c2c(Nc3cc(N)cc(Cl)c3)ncnc12 [3-chloro-5-aminoanilino / methyl] , system UniProtKB P06493: what IC50 was measured? 19 µM

Entry CC(C)c1n[nH]c2c(Nc3cc(N)cc(Cl)c3)ncnc12 [3-chloro-5-aminoanilino / isopropyl] , system UniProtKB P06493: what IC50 was measured? 6.1 µM

Entry CCc1n[nH]c2c(NCc3ccccc3Cl)ncnc12 [2-chlorobenzylamino / ethyl] , system UniProtKB P06493: what IC50 was measured? 12 µM

Entry CC(C)c1n[nH]c2c(NCc3ccccc3)ncnc12 [benzylamino / isopropyl] , system UniProtKB P06493: what IC50 was measured? 1.3 µM

Entry Cc1n[nH]c2c(NCc3ccccc3O)ncnc12 [2-hydroxybenzylamino / methyl] , system UniProtKB P06493: what IC50 was measured? 4 µM

----------
The reader will find reported pIC50 values listed item by item below.
- Tested on: MCF7 (human breast adenocarcinoma)
- Experimental Details: In vitro cytotoxic activity, Calcein AM, three days
- Format: cell-based
- Assay Context: Homo sapiens, MCF7, 72 h
Reminder that pIC50 means the negative base-10 logarithm of the concentration expressed in mol/L.

Below: 3 molecules and their reported pIC50.
Molecule | pIC50
CC(C)c1n[nH]c2c(NCc3ccc(O)cc3)ncnc12 [4-hydroxybenzylamino / isopropyl] | 3.82
CC(C)c1n[nH]c2c(NCc3ccccc3Br)ncnc12 | 4.38
CC(C)c1n[nH]c2c(Nc3ccccc3)ncnc12 | 4.82

Field request: pIC50 | item: CC(C)c1n[nH]c2c(Nc3ccc(N)c(Cl)c3)ncnc12 4.92

Field request: pIC50 | item: COc1ccc(CNc2ncnc3c(C(C)C)n[nH]c23)cc1 4.55

Field request: pIC50 | item: CCc1n[nH]c2c(NCc3ccco3)ncnc12 3.87

Field request: pIC50 | item: CC(C)c1n[nH]c2c(Nc3ccc(Cl)cc3)ncnc12 5.52

----------
- Target Or Test System: CDK2 (p33^cdk2, cyclin E) (Homo sapiens, UniProt P24941)
- Experimental Details: CDK inhibition assay, p33^cdk2 kinase, histone H1 phosphorylation;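 note: Baculovirus-expressed kinase/cyclin complex from Sf9 cell extract, 10 min at 30 °C, phosphoproteins separated by SDS gel and quantified by image analysis, activity relative to DMSO control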
pIC50: −log10 of the molar value.
Please note: fulfilled applies when pIC50 is 5 or greater, and not fulfilled applies otherwise.

Compound | Class Label
CCc1n[nH]c2c(NCc3cccc(O)c3)ncnc12 [3-hydroxybenzylamino / ethyl] | fulfilled
C=CCNc1ncnc2c(C(C)C)n[nH]c12 | not fulfilled

Entry CC(C)c1n[nH]c2c(NC3CCCCC3)ncnc12 : is its pIC50 no less than 5? not fulfilled

Entry Cc1n[nH]c2c(Nc3cc(N)cc(Cl)c3)ncnc12 : is its pIC50 no less than 5? not fulfilled

Entry CCc1n[nH]c2c(Nc3ccc(Br)cc3)ncnc12 : is its pIC50 no less than 5? not fulfilled

Entry Cc1n[nH]c2c(Nc3ccccc3)ncnc12 : is its pIC50 no less than 5? not fulfilled

Entry CCc1n[nH]c2c(Nc3ccccc3)ncnc12 : is its pIC50 no less than 5? not fulfilled

Entry C=CCNc1ncnc2c(CC)n[nH]c12 : is its pIC50 no less than 5? not fulfilled

Entry CC(C)c1n[nH]c2c(Nc3ccccc3)ncnc12 : is its pIC50 no less than 5? fulfilled

Entry CC(C)c1n[nH]c2c(NC3CCCC3)ncnc12 : is its pIC50 no less than 5? not fulfilled

Entry CC(C)c1n[nH]c2c(NCc3ccccc3Cl)ncnc12 : is its pIC50 no less than 5? fulfilled

Entry CC(C)c1n[nH]c2c(NCc3ccc(Cl)cc3)ncnc12 : is its pIC50 no less than 5? fulfilled

Entry CCc1n[nH]c2c(NCC=C(C)C)ncnc12 : is its pIC50 no less than 5? not fulfilled

Entry CC(C)c1n[nH]c2c(NCc3cccc(O)c3)ncnc12 [3-hydroxybenzylamino / isopropyl] : is its pIC50 no less than 5? fulfilled

----------
The reader will find reported IC50 values listed item by item below.
- Target Or Test System: CDK2 (p33^cdk2, cyclin E) (Homo sapiens)
- Experimental Details: CDK inhibition assay, p33^cdk2 kinase, histone H1 phosphorylation
Kindly answer with a numeric value in µM, unit omitted.

Entry CCc1n[nH]c2c(NCc3ccccc3)ncnc12 [benzylamino / ethyl] , system CDK2 (p33^cdk2, cyclin E) (Homo sapiens): what IC50 was measured? 11

Entry CCc1n[nH]c2c(Nc3ccc(C(=O)O)c(Cl)c3)ncnc12 [3-chloro-4-carboxyanilino / ethyl] , system CDK2 (p33^cdk2, cyclin E) (Homo sapiens): what IC50 was measured? 32

Entry CCc1n[nH]c2c(NC3CCC3)ncnc12 [cyclobutylamino / ethyl] , system CDK2 (p33^cdk2, cyclin E) (Homo sapiens): what IC50 was measured? 25

----------
- System: MCF7 (human breast adenocarcinoma)
- Experimental Details: In vitro cytotoxic activity, Calcein AM, three days
- Assay type: cell-based
- Assay Context: Homo sapiens, MCF7, 72 h
Rule: IC50 below 60 µM gives met. Equal to or above 60 µM gives not met.

A record lists CC(C)=CCNc1ncnc2c(C(C)C)n[nH]c12 . Is its IC50 below 60 µM? not met
